# credit: paper PMC10397247

- subjectOfTest: T1, 4H429-AA
- T1 chain: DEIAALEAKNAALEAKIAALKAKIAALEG
- method: two-hybrid library CCmax;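 further: natural log of median RNA to DNA barcode read ratio; higher means stronger binding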
- conditionDescription: mean of both orientations
# interaction score per record follows
Keep the answer to the number alone.

Look over these answered cases.
                                     binder  experimentalvalue
0  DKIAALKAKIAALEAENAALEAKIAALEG [4H2837-AA]              0.476
1  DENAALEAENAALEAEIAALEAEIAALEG [4H1153-AA]              0.137

Give interaction score for the following binder: DEIAALEAKIAALEAKNAALKAKIAALEG [4H317-AA]
-0.459

Give interaction score for the following binder: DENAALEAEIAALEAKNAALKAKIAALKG [4H1086-AA]
0.612

Give interaction score for the following binder: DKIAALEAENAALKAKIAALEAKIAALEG [4H2277-AA]
-0.713

Give interaction score for the following binder: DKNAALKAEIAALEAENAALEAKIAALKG [4H3606-AA]
0.643

Give interaction score for the following binder: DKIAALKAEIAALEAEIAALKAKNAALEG [4H2575-AA]
-0.196
